- Tested on: Vero E6 infected with SARS-CoV-2
- measurement-protocol: inhibition of SARS-CoV-2 cytopathic effect; higher = more antiviral protection, active = above 15
- conditions: 833.33 nM; 48 h
# inhibition of SARS-CoV-2 cytopathic effect per record follows
// note: answer is a bare numeric in %

Entry "CO[C@H]1/C=C/O[C@@]2(C)Oc3c(C)c(O)c4c(O)c(c(/C=N/N5CCN(C)CC5)c(O)c4c3C2=O)NC(=O)/C(C)=C\C=C\[C@H](C)[C@H](O)[C@@H](C)[C@@H](O)[C@@H](C)[C@H](OC(C)=O)[C@@H]1C" : reported inhibition of SARS-CoV-2 cytopathic effect = ?
-3.32

Same question, "Cc1cccc(-c2n[nH]cc2-c2ccc(F)c(-c3cnn(CCO)c3)c2)n1" this time
-0.9

Also check COC(=O)c1ccccc1O [methyl-salicylate]
-0.42

Also CO/N=C1\CN(c2nc3c(cc2F)c(=O)c(C(=O)O)cn3C2CC2)CC1CN (stereo not given) ?
1.02

What do you have for "OCCCCO" ?
0.26

And the next one, "O=C1CC2(CCCC2)CC(=O)N1CCNC[C@H]1COc2ccccc2O1" ?
0.95

Okay, and "Cc1cn([C@@H]2C[C@@H](O)[C@H](CO)O2)c(=O)[nH]c1=O" ?
-0.26

Continue with "NC(=O)CN1CC[C@@H](NC(=O)[C@@H]2CCCN2)C1=O"
0.9

How about this molecule: "CC(C)(C)S(=O)(=O)N[C@H]1CC[C@H](C(=O)Nc2ccc(C(F)(F)F)cn2)CC1"
-1.55

Would you mind doing "Cc1cc(Nc2cc(C)c(C#N)c(N[C@@H](C)CCCC(C)(C)O)n2)n[nH]1" as well?
-6.81

What do you have for c1ccc(C2CN3CCSC3=N2)cc1 (stereo not given) ?
6.51

How about this molecule: CN(CCOc1ccc(CC2SC(=O)NC2=O)cc1)c1ccccn1 (stereo not given)
-0.37

Can you handle "CCNC1(C(N)=O)CCN(c2ncnc3c2nc(-c2ccccc2Cl)n3-c2ccc(Cl)cc2)CC1" next?
7.17

NC(=O)CCCCC1CCSS1 (stereo not given) [lipoamide] , same question.
-3.3

Proceed to "CCC[C@@H]1CC(=O)N([C@@H](CC)C(N)=O)C1"
-2.52

Next molecule: "COc1cc(C(=O)NCCCCCC(=O)O)cc(OC)c1OC"
-1.85

Please do the same for C[C@]12CCC(=O)C=C1CC[C@@H]1[C@@H]2[C@@H](O)C[C@@]2(C)[C@H]1CC[C@]2(O)C(=O)COP(=O)(O)O [hydrocortisone-phosphate] as well.
2.84

---

Each record here notes measured inhibition of SARS-CoV-2 cytopathic effect.
- System: Vero E6 infected with SARS-CoV-2
- measurement-protocol: inhibition of SARS-CoV-2 cytopathic effect; higher = more antiviral protection, active = above 15
- conditions: 8.33 nM; 48 h
Write the answer as a number in %, unit excluded.

Endpoint output: inhibition of SARS-CoV-2 cytopathic effect of "O=c1cccc2n1C[C@@H]1CNC[C@H]2C1" . Value?
0.43

Also check "COCCOc1ccc2c(c1)ncn2-c1ccc2cccc(N3CCC(N)CC3)c2n1"
2.04

Entry to check: "CC(C)=CCc1c(O)cc(O)c2c(=O)c(O)c(-c3ccc(C(F)(F)F)cc3)oc12"
1.52

Then Cc1ccc(S(=O)(=O)NC(=O)NN2CCCCCC2)cc1 [tolazamide] ?
-0.36

Ok, now "C[C@]12CC[C@@H]3c4ccc(O)cc4CC[C@H]3[C@@H]1CC[C@@H]2O"
2.24

---

- Tested on: Vero E6 infected with SARS-CoV-2
- measurement-protocol: morphology score (similarity to uninfected cells); higher = more like uninfected cells
- conditions: 24 h
Quick rule: morphology score of at least 0.1 means met, below that means not met.

For orientation, consider the following solved cases.
>>> label("Cc1ccc2c(-c3ccccc3)nc(=O)n(C(C)C)c2c1 [proquazone] (10 µM)")
"not met"
>>> label("COCc1nnc(N2CC(Oc3ccc(F)cc3Cl)C2)n1-c1ccc(OC)nc1 (10 µM)")
"not met"
>>> label("Cc1cc(-c2nc3cc(F)ccc3s2)ccc1NC(=O)[C@@H](N)CCCCN [phortress] (10 µM)")
"not met"
>>> label("O=C(NC[C@H]1CN(c2ccc(N3CCOCC3=O)cc2)C(=O)O1)c1ccc(Cl)s1 [Rivaroxaban (Xarelto)] (10 µM)")
"met"
>>> label("C[C@H](CCC(=O)O)[C@H]1CC[C@H]2[C@@H]3C[C@H](O)[C@@H]4C[C@H](O)CC[C@]4(C)[C@H]3CC[C@]12C [Hyodeoxycholic acid (HDCA)] (10 µM)")
"met"

Could you please find out whether CNC(=O)c1nn(C)c2c1C(C)(C)Cc1cnc(Nc3ccc(N4CCN(C)CC4)cc3)nc1-2 (10 µM) has morphology score that meets 0.1 or exceeds it?
not met

---

- Test system: Vero E6 infected with SARS-CoV-2
- measurement-protocol: SARS-CoV-2 infection rate relative to infected DMSO; higher = more infection, active = 60 or less
- conditions: 24 h
Counter-ions that a name gives are not always drawn.
measured-quantity: SARS-CoV-2 infection rate (%)
Note: unit % is implicit; provide only the numeric part.

>>> number("CCc1cc2c(c(CC)n1)CCC(=O)N2Cc1ccc(-c2ccccc2-c2nnn[nH]2)cc1 (10 µM)")
98.5
>>> number("O=C1Nc2cc(Cl)c(Cl)cc2N2CCNC[C@H]12 (10 µM)")
108
>>> number("C=C[C@H]1CN2CC[C@H]1C[C@@H]2[C@@H](O)c1ccnc2ccc(OC)cc12 [quinidine] (10 µM)")
108
>>> number("CN1CCC(=C2c3ccccc3CCc3sccc32)CC1 [pizotifen] (10 µM)")
94.5
>>> number("CN(C)C(=O)Nc1cccc(-c2ccc(N(C)C)cc2)c1 [atglistatin] (10 µM)")
98

# get_value(readout='SARS-CoV-2 infection rate', item= NC(=O)CN1CC[C@@H](NC(=O)[C@@H]2CCCN2)C1=O (10 µM) )
110

Moving on to CC(C)(Sc1cc(C(C)(C)C)c(O)c(C(C)(C)C)c1)Sc1cc(C(C)(C)C)c(O)c(C(C)(C)C)c1 [probucol] (10 µM)
100

Same question, CC(=O)O[C@H]1C[C@H](O[C@H]2[C@@H](O)C[C@H](O[C@H]3[C@@H](O)C[C@H](O[C@H]4CC[C@@]5(C)[C@H](CC[C@@H]6[C@@H]5C[C@@H](O)[C@]5(C)[C@@H](C7=CC(=O)OC7)CC[C@]65O)C4)O[C@@H]3C)O[C@@H]2C)O[C@H](C)[C@H]1O[C@@H]1O[C@H](CO)[C@@H](O)[C@H](O)[C@H]1O [lanatoside-C] (0.833333 µM) this time
102

Same question for CC(C)C[C@@H](N)C(=O)N[C@H]1C(=O)N[C@@H](CC(N)=O)C(=O)N[C@H]2C(=O)N[C@H]3C(=O)N[C@H](C(=O)N[C@H](C(=O)O)c4cc(O)cc(O)c4-c4cc3ccc4O)[C@H](O)c3ccc(c(Cl)c3)Oc3cc2cc(c3O[C@@H]2O[C@H](CO)[C@@H](O)[C@H](O)[C@H]2O[C@H]2C[C@](C)(N)[C@H](O)[C@H](C)O2)Oc2ccc(cc2Cl)[C@H]1O [norvancomycin] (10 µM) please.
100

Continue with CCNC(=O)[C@H]1O[C@@H](n2cnc3c(N)nc(NCCc4ccc(CCC(=O)O)cc4)nc32)[C@H](O)[C@@H]1O (10 µM)
115

Next record, please: CC[C@@H](c1cccc(O)c1)[C@@H](C)CN(C)C [Tapentadol (hydrochloride)] (10 µM)
108

---

Property: inhibition of SARS-CoV-2 cytopathic effect; scope: individual compounds
- Test system: Vero E6 infected with SARS-CoV-2
- measurement-protocol: inhibition of SARS-CoV-2 cytopathic effect; higher = more antiviral protection, active = above 15
- conditions: 833.33 nM; 48 h
Enter your answer as a number in %; do not include the unit.

Worked cases, answers included:
>>> number("Cn1nnnc1SCC1=C(C(=O)O)N2C(=O)[C@@H](NC(=O)[C@H](OC=O)c3ccccc3)[C@H]2SC1 [cefamandole-nafate]")
-3.24
>>> number("CCCCC(=O)O[C@]1(C(=O)CO)[C@@H](C)C[C@H]2[C@@H]3CCC4=CC(=O)C=C[C@]4(C)[C@@]3(F)[C@@H](O)C[C@@]21C")
-2.78
>>> number("C=C[C@](C)(O)CC[C@@H]1[C@@]2(C)CCCC(C)(C)[C@@H]2CC[C@@]1(C)O")
-1.37
>>> number("CN(C)c1cccc(-c2c3c(=O)n(-c4ccccc4Cl)[nH]c3cc(=O)n2C)c1")
-1.67

Okay, next one:
So what does the record say about inhibition of SARS-CoV-2 cytopathic effect for "CCOC(=S)SSC(=S)OCC" ?
-0.83

Data origin, for the record: the supplement of paper PMC13380429
